- TGT: SMYD3 (Homo sapiens, UniProt Q9H7B4)
- Sequence (Q9H7B4 whole entry): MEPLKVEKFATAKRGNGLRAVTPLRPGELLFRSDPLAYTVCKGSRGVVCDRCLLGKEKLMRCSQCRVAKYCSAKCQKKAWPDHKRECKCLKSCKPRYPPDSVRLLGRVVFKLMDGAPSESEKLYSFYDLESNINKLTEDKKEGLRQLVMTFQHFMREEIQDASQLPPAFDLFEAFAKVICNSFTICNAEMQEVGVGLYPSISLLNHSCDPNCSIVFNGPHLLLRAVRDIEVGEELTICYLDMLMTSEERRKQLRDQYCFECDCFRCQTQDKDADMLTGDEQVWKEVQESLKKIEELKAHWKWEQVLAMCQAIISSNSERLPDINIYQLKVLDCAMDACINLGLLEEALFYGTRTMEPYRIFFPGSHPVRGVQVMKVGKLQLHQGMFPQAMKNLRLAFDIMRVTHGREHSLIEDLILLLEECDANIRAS
- ASSAY REMARKS: SMYD3 biochemical assay (MTase-Glo, MAP3K2 peptide substrate)
- CONDITION PARAMETERS: Table 3; MTase assay, MAP3K2 peptide substrate; read-out: IC50
- Method: A SMYD3 enzymatic assay was developed using Promega's Methyltransferase-Glo™ reagents. In the assay, SMYD3 catalyzes the methylation of the MAP3K2 peptide substrate by transferring a methyl group from SAM to MAP3K2 peptide and further converts the SAM to SAH. The SMYD3 methyltransferase activity is measured based on the amount of SAH produced from the reaction through the use of coupling enzymes that convert the SAH to ATP. […]
READOUT LABEL: pIC50
Would you please state pIC50, meaning minus log10 of the concentration in mol/L, as a bare number?

Known pIC50 results, listed for orientation:
>>> measured("CCCOC(=O)N1CCN(C(=O)c2ccc3c(Cl)c4c(nc3c2)CC(c2ccnc(C#N)n2)CC4)CC1 (centres unmarked)")
6.52
>>> measured("CCCOC(=O)N1CCN(C(=O)c2ccc3c(Cl)cc(-c4ccc(NC(C)=O)cc4)nc3c2)C[C@H]1C")
7.26
>>> measured("CCCOC(=O)N1CCN(C(=O)c2ccc3c(Cl)cc(-c4ccc5oc(C)nc5c4)nc3c2)CC1")
6.70
>>> measured("CCCOC(=O)N1CCN(C(=O)c2ccc3c(Cl)ccnc3c2)CC1")
5.49
>>> measured("CCCOC(=O)N1CC2CCCC1CN2C(=O)c1ccc2c(Cl)c3c(nc2c1)CCCC3 (centres unmarked)")
6.77
>>> measured("C#Cc1ccc(-c2cc(Cl)c3ccc(C(=O)N4CCN(C(=O)OCCC)CC4)cc3n2)cc1")
6.03

Which pIC50 value is on record for `CCCOC(=O)N1C2CCC1CN(C(=O)c1ccc3c(Cl)c4c(nc3c1)CCCC4)C2` ?
6.44

Which pIC50 value is on record for CCCOC(=O)N1CCN(C(=O)c2ccc3c(Cl)c4c(nc3c2)CC(c2ccccn2)CC4)CC1 (single isomer, unassigned) [A053 (Ent-2)] ?
6.62
